# STUDY_TARGET: Gal(b1-6)Gal
# MEASUREMENT_PROTOCOL: glycan array binding signal (z-score within array); higher = stronger binding
# MEASUREMENT_CONTEXT: glycan notation: IUPAC condensed, linker removed
Shown is part of a subset that was picked to be rich in the strongest signals.
# key: entry, value: glycan array binding signal (z-score)
EXPERIMENTAL_ENDPOINT: glycan array binding signal (z-score)

[
  {
    "BINDER": "FliC (Clostridium difficile) (protein) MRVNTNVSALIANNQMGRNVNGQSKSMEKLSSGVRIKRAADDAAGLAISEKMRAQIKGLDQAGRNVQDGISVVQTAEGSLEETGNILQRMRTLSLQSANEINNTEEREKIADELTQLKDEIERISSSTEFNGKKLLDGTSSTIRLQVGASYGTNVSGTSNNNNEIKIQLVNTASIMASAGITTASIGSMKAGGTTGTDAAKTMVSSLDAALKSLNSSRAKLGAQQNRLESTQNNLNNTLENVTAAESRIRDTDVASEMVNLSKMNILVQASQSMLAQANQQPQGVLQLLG",
    "NUMBER": 0.447
  },
  {
    "BINDER": "Pwp3 (Candida glabrata) (protein) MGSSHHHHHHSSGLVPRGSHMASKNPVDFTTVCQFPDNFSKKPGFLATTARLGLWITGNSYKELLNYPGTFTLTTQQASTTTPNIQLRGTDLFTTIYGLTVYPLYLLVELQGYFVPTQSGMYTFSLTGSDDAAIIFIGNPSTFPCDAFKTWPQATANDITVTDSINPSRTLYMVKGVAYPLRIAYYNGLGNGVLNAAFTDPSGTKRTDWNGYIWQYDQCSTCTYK",
    "NUMBER": -0.446
  },
  {
    "BINDER": "SAOUHSC 02783 (Staphylococcus aureus), Q5HD69 (protein) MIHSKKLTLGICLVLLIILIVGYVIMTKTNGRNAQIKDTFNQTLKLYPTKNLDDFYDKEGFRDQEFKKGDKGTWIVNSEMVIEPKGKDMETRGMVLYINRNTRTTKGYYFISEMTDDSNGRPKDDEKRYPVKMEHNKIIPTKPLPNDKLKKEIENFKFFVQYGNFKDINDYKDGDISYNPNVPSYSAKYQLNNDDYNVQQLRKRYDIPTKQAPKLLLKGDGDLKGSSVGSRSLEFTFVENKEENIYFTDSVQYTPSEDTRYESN",
    "NUMBER": 0.805
  },
  {
    "BINDER": "PNGase F (Flavobacterium meningosepticum) (protein) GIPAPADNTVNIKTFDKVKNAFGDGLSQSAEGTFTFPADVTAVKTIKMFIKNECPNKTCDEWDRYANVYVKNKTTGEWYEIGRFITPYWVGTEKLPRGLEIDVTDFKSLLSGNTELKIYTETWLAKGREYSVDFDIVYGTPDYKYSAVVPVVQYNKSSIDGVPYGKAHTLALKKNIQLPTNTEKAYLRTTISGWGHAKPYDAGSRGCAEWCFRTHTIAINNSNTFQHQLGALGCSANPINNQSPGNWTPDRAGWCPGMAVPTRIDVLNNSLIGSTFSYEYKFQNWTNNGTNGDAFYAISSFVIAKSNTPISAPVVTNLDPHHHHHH",
    "NUMBER": 0.208
  }
]
